T/C values, listed per item
Tested on: L1210 leukemia ip in BDF1 mice, survival T/C
Experiment: NCI In Vivo Anticancer Drug Screen. Data for tumor model L1210 Leukemia (intraperitoneal) in B6D2F1 (BDF1) mice
Conditions: endpoint: mean survival time; dose: 25.0 mg/kg/injection; schedule: Q01DX009 (ip); vehicle: saline; higher = longer survival
Description: The antitumor activity of compounds was measured in mice bearing transplantable tumors. Survival or tumor size were measured and the results are expressed as the measurement made in the treated group (T) divided by the measurement made in the vehicle treated control group (C). The tumor model used in this assay is L1210 Leukemia (intraperitoneal) in B6D2F1 (BDF1) mice
Toxic doses and inconclusive results are not listed.

Some solved cases for reference:
| molecule | T/C |
| --- | --- |
| CN(C)CC/C=C1\c2ccccc2CN(C)c2ccccc21 | 94 % of control |
| CC(=O)/C=C/c1ccc2c(c1)OCO2 | 105 % of control |

Could you now consider this next molecule?
IN: What does the data say about its T/C? Entry: CCCCNC(=O)C1CC2c3cccc4c3c(cn4C)CC2N(C)C1 (stereo not drawn)
OUT: 94 % of control

----------
Test system: L1210 leukemia ip in BDF1 mice, survival T/C
Assay: NCI In Vivo Anticancer Drug Screen. Data for tumor model L1210 Leukemia (intraperitoneal) in B6D2F1 (BDF1) mice
Settings: endpoint: mean survival time; dose: 400.0 mg/kg/injection; schedule: Q04DX003 (ip); vehicle: saline; higher = longer survival
Protocol: The antitumor activity of compounds was measured in mice bearing transplantable tumors. Survival or tumor size were measured and the results are expressed as the measurement made in the treated group (T) divided by the measurement made in the vehicle treated control group (C). The tumor model used in this assay is L1210 Leukemia (intraperitoneal) in B6D2F1 (BDF1) mice
Inconclusive results and toxic doses are left out.
T/C values, listed per item

Some solved cases for reference:
| smilesCode | T/C |
| --- | --- |
| COc1ccc2c(=O)c3ccccc3oc2c1 | 103 % of control |
| CN(C)C(=O)/C=C/C(=O)N(C)C | 108 % of control |
| Nc1ccnc(Br)c1 | 112 % of control |
| Cc1cc(N)ccc1/C=C/C(=O)O | 93 % of control |
| O=C(O)CCSCc1cc(=O)[nH]c(=O)[nH]1 | 96 % of control |

IN: What does the data say about its T/C? Entry: `COc1ccccc1OC(=O)c1ccccc1O`
OUT: 88 % of control

----------
tested on: L1210 leukemia ip in BDF1 mice, survival T/C; assay: NCI In Vivo Anticancer Drug Screen. Data for tumor model L1210 Leukemia (intraperitoneal) in B6D2F1 (BDF1) mice; details: endpoint: mean survival time; dose: 100.0 mg/kg/injection; schedule: Q01DX001 (ip); vehicle: Klucel (hydroxypropylcellulose) (HPC); higher = longer survival
Inconclusive results and toxic doses are left out.
T/C values, listed per item

| smilesCode | T/C |
| --- | --- |
| CC(=O)Nc1c2ccccc2nc2c1c(C)c(C)c1ccccc12 | 89 % of control |

IN: Hi! What's the reported T/C for `O=C1c2ccccc2C(=O)N1c1ccc(Br)cc1` on L1210 leukemia ip in BDF1 mice, survival T/C?
OUT: 101 % of control

IN: Then this compound: `CCCCCc1[nH]c(=O)[nH]c(=O)c1S(=O)(=O)N1CCCCC1`
OUT: 107 % of control

IN: Then this compound: `Cc1ccc(NC(=O)c2ccc(Cl)cc2Cl)cc1C`
OUT: 90 % of control

IN: Then this compound: `C=C(Br)CNC(=O)NCCCl`
OUT: 90 % of control

IN: Then this compound: `N#Cc1c2ccccc2c(=N)n2ccccc12`
OUT: 95 % of control

IN: Then this compound: `NC(=O)N/N=C\C=N/NC(N)=O`
OUT: 92 % of control

Source of measurements: PubChem BioAssay AID248
